Test system: LXFL 529
Test: NCI tumour cell line growth inhibition, 48 h
Activity calls are given as the source filed them. Cut-off read from the data, not from the text of the source: active = GI50 up to about 1.1 µM and inactive = higher.
MEASUREMENT_LABEL: GI50

{"COMPOUND": "C/C(=C\\c1ccccc1)C(O)S(=O)(=O)O (stereo unspecified)", "TARGET_OR_TEST_SYSTEM": "LXFL 529", "RESULT": "> 100 µM (inactive)"}
{"COMPOUND": "Nc1nc(N)c(-c2ccc(Cl)cc2)c(CCC(=O)Nc2cccc(C(F)(F)F)c2)n1", "TARGET_OR_TEST_SYSTEM": "LXFL 529", "RESULT": "> 100 µM (inactive)"}
{"COMPOUND": "CC1CCC(C(C)(C)c2ccccc2)C(=O)C1 (stereo unspecified)", "TARGET_OR_TEST_SYSTEM": "LXFL 529", "RESULT": "> 100 µM (inactive)"}
{"COMPOUND": "COc1c(CC(C)=O)ccc2c1C(=O)c1ccc(C=O)c(OC(C)=O)c1C2=O", "TARGET_OR_TEST_SYSTEM": "LXFL 529", "RESULT": "5.53 µM (inactive)"}
{"COMPOUND": "Clc1ccc(OCc2nnc3n2N=C(c2ccc(Br)cc2)CS3)cc1", "TARGET_OR_TEST_SYSTEM": "LXFL 529", "RESULT": "15.2 µM (inactive)"}

Endpoint output: GI50 of CCN1C(=O)C(=CN)C(=O)N(CC)C1=O . Value?
> 100 µM (inactive)

* * *

Test system: A498
Experiment: NCI tumour cell line growth inhibition, 48 h
Calls of active or inactive are those of the source. Cut-off read from the data, not from the text of the source: active = GI50 up to about 1.1 µM and inactive = higher.
Entry note: the call must match one of TRUE for active, FALSE for inactive

Example entries and their recorded answers appear below.
{"COMPOUND": "C/C(=N\\Nc1nc2ccccc2[nH]1)c1ncccn1", "GROUP": "TRUE"}
{"COMPOUND": "O=C1CC[C@@]2(O)[C@H]3Cc4ccc(-c5ccccc5)c5c4[C@@]2(CCN3CC2CC2)[C@H]1O5", "GROUP": "FALSE"}
{"COMPOUND": "NCC1OC(n2cnc3c(=O)[nH]c(N)nc32)C(O)C1O (stereo unspecified)", "GROUP": "FALSE"}
{"COMPOUND": "COc1ccc(/C(CCl)=C(\\Nc2ccccc2)c2ccc(OC)c(OC)c2)cc1OC", "GROUP": "FALSE"}

Please examine the following record next.
Can you look up the reported call for CCN(CC)/N=N/c1c(C(N)=O)n[nH]c1C for me?
FALSE

* * *

Tested on: UACC-62
Test: NCI tumour cell line growth inhibition, 48 h
Active and inactive are the calls of the source. Rule as the data show it: active = GI50 up to about 1.1 µM and inactive = higher.
MEASUREMENT_LABEL: GI50

Below are worked cases with known answers.
{"COMPOUND": "COC(=O)C1=C(O)C(C(=O)OC)[C@]2(O)[C@H](C(=O)OC)[C@H]1C[C@@H](c1ccc(O)cc1)[C@H]2C(=O)OC (some centres not stated)", "TARGET_OR_TEST_SYSTEM": "UACC-62", "GI50": "31.3 µM (inactive)"}
{"COMPOUND": "CC1(C(=O)NCCN(CCNC(=O)C2(C)CC3(C)CC(C)(C2)C(=O)NC3=O)CCNC(=O)C2(C)CC3(C)CC(C)(C2)C(=O)NC3=O)CC2(C)CC(C)(C1)C(=O)NC2=O (configuration not stated)", "TARGET_OR_TEST_SYSTEM": "UACC-62", "GI50": "> 100 µM (inactive)"}
{"COMPOUND": "O=C1CSC2(CC(/C=C/c3ccccc3O)=NN2c2cccc(S(=O)(=O)O)c2)N1c1nc2ccccc2s1 (configuration not stated)", "TARGET_OR_TEST_SYSTEM": "UACC-62", "GI50": "29.4 µM (inactive)"}
{"COMPOUND": "Nn1c(CCCCCCCCc2nnc(COc3ccc(Cl)cc3Cl)n2N)nnc1COc1ccc(Cl)cc1Cl", "TARGET_OR_TEST_SYSTEM": "UACC-62", "GI50": "38.6 µM (inactive)"}
{"COMPOUND": "CCCOc1ccc2sc(NC(=O)c3cc([N+](=O)[O-])cc([N+](=O)[O-])c3)nc2c1", "TARGET_OR_TEST_SYSTEM": "UACC-62", "GI50": "25.5 µM (inactive)"}
{"COMPOUND": "CC1OC2OC3C(OCC(O)C3O)OC(=O)[C@]34CCC(C)(C)CC3C3=CCC5[C@@]6(C)C[C@H](O)[C@H](OC7OC(CO)C(O)C(O)C7OC7OC(COC(=O)CC(C)(O)CC(=O)OC1C(O)C2O)C(O)C(O)C7O)[C@@](C)(CO)C6CC[C@@]5(C)[C@]3(C)CC4 (some centres not stated)", "TARGET_OR_TEST_SYSTEM": "UACC-62", "GI50": "1.56 µM (inactive)"}

Would you kindly share the measured GI50 for C[n+]1c2ccccc2c(N=[N+]=[N-])c2ccccc21 ?
7.73 µM (inactive)

Okay, and O=C(O)C1=CCCc2ccc3ccccc3c21 ?
> 100 µM (inactive)

Please answer likewise for COc1ccc2c(CCN)c(C(=O)O)[nH]c2c1
> 100 µM (inactive)

* * *

Tested on: CCRF-CEM
Assay: NCI tumour cell line growth inhibition, 48 h
The source made the active and inactive calls. Rule as the data show it: active = GI50 up to about 1.1 µM and inactive = higher.
// allowed return values: active, inactive

Solved entries (count: 2):
{"MOLECULE": "O/N=C1\\C=Cc2nn(-c3ccccc3)nc2\\C1=N/O", "GROUP": "inactive"}
{"MOLECULE": "Cn1cc/c(=N\\N=c2/ccn(C)c3ccccc23)c2ccccc21", "GROUP": "inactive"}

Called result for CCCC(C)n1c(C)nc2c1C(=O)c1ccccc1C2=O (stereo unspecified)
inactive

And the next one, CN(CCc1ccccn1)C(=S)N/N=C/c1ccccn1 ?
active

Now consider CC(=O)[O-].[O-]c1c(Cl)cc(Cl)cc1/C=N/Nc1ccccn1.[Zn+2] .
active

And for C=C1CC(Cn2cc(Br)c(=O)[nH]c2=O)(c2ccc(-c3ccccc3)cc2)OC1=O (stereo unspecified) ?
active

* * *

Tested on: UO-31
Test: NCI tumour cell line growth inhibition, 48 h
Active and inactive are the calls of the source. Rule as the data show it: active = GI50 up to about 1.1 µM and inactive = higher.
Answer with one of the outcomes given here: Y (active), N (inactive)

{"MOLECULE": "CC(=O)Oc1cc2c(c3ncccc13)OC(C)(C)C2", "GROUP": "N"}
{"MOLECULE": "COc1ccc(OC)c(/N=C/c2cc(OC)c(OC)c(OC)c2)c1", "GROUP": "N"}
{"MOLECULE": "CSc1c(CC(=O)O)n(Cc2ccccc2)c2ccccc12", "GROUP": "N"}
{"MOLECULE": "Cc1cccc2oc3c(c(=O)c12)CC(O)C(C)(C)O3 (stereo unspecified)", "GROUP": "N"}
{"MOLECULE": "O=C(O)C1=CCCc2ccc3ccccc3c21", "GROUP": "N"}

Any idea what this test logged for COc1ccc(C[C@@H]2CN(C(=O)c3ccccc3)[C@H](Cc3ccc(O)cc3)CN2C(=O)c2ccccc2)cc1Br ?
N

// same read-out, input: CCN(CC)/N=N/c1c(C(N)=O)n[nH]c1C
N

Can you check CNC(=O)N1CN(c2ccccc2)C2(CCN(Cc3ccccc3)CC2)C1=O next?
N

Let us now turn to C=C1C(C)C2C(Cc3ccccc3)NC(=O)C23OC(=O)/C=C\CC(=O)CCC(C)C/C=C/C3C1O (stereo unspecified)
Y

Would you kindly repeat that for CC1CC(=O)N(N(C)C)C(C#N)(C#N)C1(C#N)C#N (stereo unspecified) ?
N

Could you do the same for CCO/C([O-])=C(\C(=O)c1ccccc1)[n+]1c(C)n(C)c2ccccc21 , please?
N

* * *

Tested on: SK-MEL-5
Experiment: NCI tumour cell line growth inhibition, 48 h
Activity calls are given as the source filed them. No stated cut-off is given here; in the data, active = GI50 up to about 1.1 µM and inactive = higher.
Parameter GI50: see the listing below.

Recorded results for 6 compounds are shown here.
{"COMPOUND": "O=C1/C(=C\\c2ccc(O)cc2)CCC/C1=C/c1ccc(Cl)c(Cl)c1", "GI50": "7.11 µM (inactive)"}
{"COMPOUND": "O=C1/C(=C/c2cccc([N+](=O)[O-])c2)Sc2scc(-c3ccc([N+](=O)[O-])cc3)[n+]21", "GI50": "27.7 µM (inactive)"}
{"COMPOUND": "COc1cc(C(c2cccc3ccccc23)N2C(=O)CCC2C(=O)O)cc(OC)c1OC (stereo not drawn)", "GI50": "> 100 µM (inactive)"}
{"COMPOUND": "COC(=O)CC1C2(C)C3=C(C)C(c4ccoc4)CC3OC2C2OC(=O)C3(C)C=CC(=O)C1(C)C23 (stereo not drawn)", "GI50": "1.6 µM (inactive)"}
{"COMPOUND": "O=C(COc1ccc(OCC(=O)N2C(=O)CS/C2=N\\c2ccccc2)cc1)N1C(=O)CS/C1=N\\c1ccccc1", "GI50": "11.6 µM (inactive)"}
{"COMPOUND": "C=C1C(C)C2C(Cc3ccccc3)NC(=O)C23OC(=O)/C=C\\CC(=O)CCC(C)C/C=C/C3C1O (stereo not drawn)", "GI50": "3.71 µM (inactive)"}

Entry CCOC(=O)/C(C#N)=C/c1ccc2c(-c3c(OCC)ccc4cc(/C=C(\C#N)C(=O)OCC)ccc34)c(OCC)ccc2c1 , system SK-MEL-5: what GI50 was measured?
> 100 µM (inactive)

Same question for CC(=O)O[C@H]1CC[C@@]2(C)C(=CC[C@@H]3C2CC[C@]2(C)Nc4nc5ccccc5cc4CC32)C1 (stereo partly drawn) please.
4.1 µM (inactive)
